Molecular target: PCSK9 (Homo sapiens (Human), UniProt Q8NBP7)
Assay: PCSK9 Alexa FRET Standard assay (displacement of AlexaFluor647 tagged cyclic peptide Reagent A)
Format: binding
Details: PCSK9 Alexa FRET Standard assay, 0.5 nM PCSK9, 20 nM AF cyclic peptide Reagent A; read-out: IC50
Description: A solution containing 1 nM biotinylated PCSK9+2.5 nM Lance Streptavidin Europium (Strep-Eu) was made in 50 mM HEPES pH 7.4, 0.15 M NaCl, 5 mM CaCl2), 0.01% BSA, and 0.01% Surfactant P20. […] The reaction was incubated at room temperature for at least two hours prior to fluorescence measurements using an Envision Multilabel Reader. IC50 values were determined by fitting data to a sigmoidal dose-response curve using nonlinear regression. […]
pIC50: −log10 of the molar value. Starred links: 1 amine or outer side, 2 acyl side, 3 side chain; linkers in the order of their positions; H or OH if unused. Positions of bridges follow the written chain, without caps; N, C: chain ends. Non-standard residues stand in square brackets, D forms with d. Residues, ends and D or L forms follow the SMILES beside them. Trp(5-F) = N[C@@H](Cc1c[nH]c2ccc(F)cc12)C(=O)O; mXylylene = c1cc(C[*:1])cc(C[*:2])c1; X21 = O=C(Cc1cccc(CN[*:2])c1)[*:1]; αMeP = C[C@@]1(C(=O)O)CCCN1; Mpa = O=C(O)CCS
READOUT: pIC50

>  <COMPOUND>
COc1ccc(C[C@@H]2NC(=O)[C@H](Cc3cnc[nH]3)NC(=O)[C@H](CC(=O)O)NC(=O)[C@H](Cc3c[nH]c4ccc(F)cc34)NC(=O)[C@H](Cc3c[nH]c4ccc(F)cc34)NC(=O)[C@@H](C)NC(=O)[C@H](NC(C)=O)CCCCNC(=O)Cc3cccc(c3)CNC(=O)C[C@@H](C(N)=O)NC(=O)[C@]3(C)CCCN3C2=O)cc1 [Compound 394] (Ac-[dK][dA][Trp(5-F)][Trp(5-F)]DHY(Me)[αMeP]D-NH2; linker 1-9 via X21)

>  <OBS_VALUE>
6.00 to 7.00

$$$$
>  <COMPOUND>
COc1ccc(C[C@@H]2NC(=O)[C@@H]3CCCCCCO[C@H]4C[C@@H](C(=O)N3)N(C4)C(=O)[C@H](Cc3c[nH]c4ccc(F)cc34)NC(=O)[C@H](Cc3c[nH]c4ccc(F)cc34)NC(=O)[C@@H](C)NC(=O)[C@H](CCCCN)NC(=O)CCSCc3cccc(c3)CSC[C@@H](C(N)=O)NC(=O)[C@]3(C)CCCN3C2=O)cc1

>  <OBS_VALUE>
6.00 to 7.00

$$$$
>  <COMPOUND>
C[C@H]1NC(=O)[C@H](Cc2cnc[nH]2)NC(=O)[C@H](CC(=O)O)NC(=O)[C@H](Cc2c[nH]c3ccc(F)cc23)NC(=O)[C@H](Cc2c[nH]c3ccc(F)cc23)NC(=O)CNC(=O)[C@H](CCCCN)NC(=O)CCSCc2cccc(c2)CSC[C@@H](C(N)=O)NC(=O)[C@]2(C)CCCN2C1=O [Compound 319] ([Mpa]KG[Trp(5-F)][Trp(5-F)]DH[dA][αMeP]C-NH2; linker 1-10 via mXylylene)

>  <OBS_VALUE>
4.92 to 6.00

$$$$

---

Target: human PCSK9 / human LDLR EGFa domain interaction (Homo sapiens (Human))
Sequence (Q8NBP7 153-692): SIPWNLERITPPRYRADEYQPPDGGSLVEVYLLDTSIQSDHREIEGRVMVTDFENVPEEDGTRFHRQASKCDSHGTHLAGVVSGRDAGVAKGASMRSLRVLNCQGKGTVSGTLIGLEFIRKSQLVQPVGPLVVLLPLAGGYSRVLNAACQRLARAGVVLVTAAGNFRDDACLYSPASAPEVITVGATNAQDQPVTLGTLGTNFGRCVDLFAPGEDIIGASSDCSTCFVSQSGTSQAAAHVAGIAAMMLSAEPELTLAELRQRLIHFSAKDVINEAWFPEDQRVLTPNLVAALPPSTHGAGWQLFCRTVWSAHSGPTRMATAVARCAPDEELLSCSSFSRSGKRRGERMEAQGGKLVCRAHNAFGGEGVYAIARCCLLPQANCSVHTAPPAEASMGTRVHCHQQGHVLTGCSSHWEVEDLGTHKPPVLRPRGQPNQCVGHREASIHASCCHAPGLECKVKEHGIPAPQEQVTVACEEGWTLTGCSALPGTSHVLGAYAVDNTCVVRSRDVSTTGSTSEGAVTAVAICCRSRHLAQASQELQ
Sequence (Q8NBP7 31-152 partner): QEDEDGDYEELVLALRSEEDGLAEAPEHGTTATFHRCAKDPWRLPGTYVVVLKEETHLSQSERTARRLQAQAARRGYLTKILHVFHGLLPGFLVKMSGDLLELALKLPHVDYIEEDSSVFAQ
Assay: TR-FRET assay of inhibition of the PCSK9-LDLR protein-protein interaction
Type: binding
Conditions: TR-FRET, 20 nM human PCSK9, 20 nM human LDLR EGFa domain, 2 hours room temperature; read-out: IC50
Starred links: 1 amine or outer side, 2 acyl side, 3 side chain; linkers in the order of their positions; H or OH if unused. Positions of bridges follow the written chain, without caps; N, C: chain ends. Non-standard residues stand in square brackets, D forms with d. Residues, ends and D or L forms follow the SMILES beside them. Triazole bridges read from a SMILES are 1,4-linked. Nle(6-ylidene) = O=C([C@H](CCCC=[*:3])N[*:1])[*:2]; X25 = O=C([C@H](Cc1cccc(OCC=[*:3])c1)N[*:1])[*:2]; X52 = O=C([C@H](Cc1cc2cc(F)ccc2[nH]1)N[*:1])[*:2]; Trp(5-F) = N[C@@H](Cc1c[nH]c2ccc(F)cc12)C(=O)O; Trp(7-aza) = N[C@@H](Cc1c[nH]c2ncccc12)C(=O)O; X3 = O=C(CCSCc1cc(F)cc(CSCCN[*:1])c1)[*:2]; X42 = CN([C@@H](CCC=[*:3])C(=O)[*:2])[*:1]; Phe(4-CN) = N#Cc1ccc(C[C@H](N)C(=O)O)cc1; Lys(N3) = [N-]=[N+]=NCCCC[C@H](N)C(=O)O; X4 = O=C(CCSCc1cccc(CSCCN[*:1])c1)[*:2]; TBMB = c1c(C[*:1])cc(C[*:3])cc1C[*:2]; mXylylene = c1cc(C[*:1])cc(C[*:2])c1; Val(3-OH) = CC(C)(O)[C@H](N)C(=O)O; αMeP = C[C@@]1(C(=O)O)CCCN1; Hpra = C#CCC[C@H](N)C(=O)O; βAla = NCCC(=O)O; Mpa = O=C(O)CCS
// reported IC50 for each item listed
READOUT: IC50

>  <COMPOUND>
CC(=O)N[C@H]1CCCCn2cc(nn2)CC[C@@H](C(N)=O)NC(=O)[C@]2(C)CCCN2C(=O)[C@H](Cc2ccc(O)cc2)NC(=O)[C@H](Cc2cnc[nH]2)NC(=O)[C@H](CC(=O)O)NC(=O)[C@H](Cc2c[nH]c3ccc(F)cc23)NC(=O)[C@H](Cc2c[nH]c3ccc(F)cc23)NC(=O)CNC(=O)[C@H](C)NC1=O [Compound 332] (Ac-[Lys(N3)]AG[Trp(5-F)][Trp(5-F)]DHY[αMeP][Hpra]-NH2; triazole 1-10)

>  <OBS_VALUE>
0.1 to 100 nM

$$$$
>  <COMPOUND>
C[C@H]1NC(=O)[C@H](CCCCN)NC(=O)CCSCc2cccc(c2)CSCCNC(=O)[C@]2(C)CCCN2C(=O)[C@H](Cc2c[nH]c3ncccc23)NC(=O)[C@H](Cc2cnc[nH]2)NC(=O)[C@H](CC(=O)O)NC(=O)[C@H](Cc2c[nH]c3ccc(F)cc23)NC(=O)[C@H](Cc2c[nH]c3ccc(F)cc23)NC1=O [Compound 247] (cyclo(DH[Trp(7-aza)][αMeP][X4]K[dA][Trp(5-F)][Trp(5-F)]))

>  <OBS_VALUE>
100 to 1000 nM

$$$$
>  <COMPOUND>
NCCCC[C@@H]1NC(=O)CCCn2cc(nn2)C[C@@H](C(N)=O)NC(=O)[C@@H]2CCCN2C(=O)[C@H](Cc2ccc(O)cc2)NC(=O)[C@H](Cc2c[nH]cn2)NC(=O)[C@H](CC(=O)O)NC(=O)[C@H](Cc2c[nH]c3ccc(F)cc23)NC(=O)[C@H](Cc2c[nH]c3ccc(F)cc23)NC(=O)CNC1=O [Compound 184]

>  <OBS_VALUE>
0.1 to 100 nM

$$$$
>  <COMPOUND>
CC(C)(O)[C@@H]1NC(=O)[C@@H]2CCCN2C(=O)[C@H](Cc2c[nH]c3ccc(F)cc23)NC(=O)[C@H](Cc2c[nH]c3ccc(F)cc23)NC(=O)CNC(=O)[C@H](CCCCN)NC(=O)CCSCc2cccc(c2)CSC[C@@H](C(N)=O)NC(=O)[C@]2(C)CCCN2C(=O)[C@H](Cc2ccc(O)cc2)NC1=O [Compound 048] ([Mpa]KG[Trp(5-F)][Trp(5-F)]P[Val(3-OH)]Y[αMeP]C-NH2; linker 1-10 via mXylylene)

>  <OBS_VALUE>
100 to 1000 nM

$$$$
>  <COMPOUND>
COc1ccc(C[C@@H]2NC(=O)[C@H]([C@@H](C)O)NC(=O)[C@@H]3CCCN3C(=O)[C@H](Cc3c[nH]c4ccc(F)cc34)NC(=O)[C@H](Cc3c[nH]c4ccc(F)cc34)NC(=O)[C@@H](C)NC(=O)[C@H](CCCCN)NC(=O)CCSCc3cc(C)cc(c3)CSC[C@@H](C(N)=O)NC(=O)[C@]3(C)CCCN3C2=O)cc1 [Compound 062] ([Mpa]K[dA][Trp(5-F)][Trp(5-F)]PTY(Me)[αMeP]C-NH2; linker 1-10 via TBMB)

>  <OBS_VALUE>
1000 to 12100 nM

$$$$
>  <COMPOUND>
COc1ccc(C[C@@H]2NC(=O)CCNC(=O)[C@@H]3CCCN3C(=O)[C@H](Cc3c[nH]c4ccc(F)cc34)NC(=O)[C@H](Cc3cc4cc(F)ccc4[nH]3)NC(=O)[C@@H](C)NC(=O)[C@H](CCCCN)NC(=O)CCSCc3cccc(c3)CSCCNC(=O)[C@]3(C)CCCN3C2=O)cc1 [Compound 003] (cyclo(K[dA][X52][Trp(5-F)]P[βAla]Y(Me)[αMeP][X4]))

>  <OBS_VALUE>
1000 to 12100 nM

$$$$
>  <COMPOUND>
C[C@H]1NC(=O)[C@H](CCCCN)NC(=O)CCSCc2cccc(c2)CSCCNC(=O)[C@]2(C)CCCN2C(=O)[C@H](Cc2ccc(C#N)cc2)NC(=O)[C@H](Cc2c[nH]cn2)NC(=O)[C@H](CC(=O)O)NC(=O)[C@H](Cc2c[nH]c3ccc(F)cc23)NC(=O)[C@H](Cc2c[nH]c3ccc(F)cc23)NC1=O [Compound 300] (cyclo(DH[Phe(4-CN)][αMeP][X4]K[dA][Trp(5-F)][Trp(5-F)]))

>  <OBS_VALUE>
100 to 1000 nM

$$$$
>  <COMPOUND>
COc1ccc(C[C@@H]2NC(=O)[C@H]([C@@H](C)OC)NC(=O)[C@@H]3CC/C=C/COc4cccc(c4)C[C@H](NC(=O)[C@@H](C)NC(=O)[C@H](C)NC(=O)CCSCc4cc(F)cc(c4)CSCCNC(=O)[C@]4(C)CCCN4C2=O)C(=O)N[C@@H](Cc2c[nH]c4ccc(F)cc24)C(=O)N3C)cc1 [Compound 504] (cyclo(A[dA][X25][Trp(5-F)][X42]T(Me)Y(Me)[αMeP][X3]); staple (E) 3-5)

>  <OBS_VALUE>
100 to 1000 nM

$$$$
>  <COMPOUND>
COc1ccc(C[C@@H]2NC(=O)[C@H]([C@@H](C)O)NC(=O)[C@@H]3CCC/C=C/COc4cccc(c4)C[C@H](NC(=O)[C@@H](C)NC(=O)[C@H](CCCCN)NC(=O)CCSCc4cccc(c4)CSCCNC(=O)[C@]4(C)CCCN4C2=O)C(=O)N[C@@H](Cc2c[nH]c4ccc(F)cc24)C(=O)N3)cc1 [Compound 494] (cyclo(K[dA][X25][Trp(5-F)][Nle(6-ylidene)]TY(Me)[αMeP][X4]); staple (E) 3-5)

>  <OBS_VALUE>
1000 to 12100 nM

$$$$
>  <COMPOUND>
COc1ccc(C[C@@H]2NC(=O)[C@H]([C@H](C)O)NC(=O)[C@@H]3C[C@H](F)CN3C(=O)[C@H](Cc3c[nH]c4ccc(F)cc34)NC(=O)[C@H](Cc3c[nH]c4ccc(F)cc34)NC(=O)[C@@H](C)NC(=O)[C@H](CCCCN)NC(=O)[C@H](NC(C)=O)CCc3cn(nn3)-c3ccc(cc3)C[C@@H](C(N)=O)NC(=O)[C@]3(C)CCCN3C2=O)cc1 [Compound 068]

>  <OBS_VALUE>
0.1 to 100 nM

$$$$

Data provenance is patent US11530244B2.
